# TGT: Aβ1-42 peptide (Homo sapiens, UniProt P05067)
# Sequence (P05067 672-713 limits assumed): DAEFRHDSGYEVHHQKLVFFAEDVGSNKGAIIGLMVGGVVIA
# PROTOCOL: Thioflavin T spectrofluorescence assay (ThT-assay): inhibition of Aβ1-42 aggregation (% inhibition at 330 μM; IC50 from dilution series)
# CONDITION_DETAILS: IC50 μM 2nd assay, ThT assay, dilution series 330 μM to 0.08 μM; 2nd assay
REPORTED_METRIC: IC50 (µM)
Numbers only, in µM.

Example compounds with recorded IC50:
CNC1CCc2c(c3ccc(Nc4ccc(N5CCOCC5)cc4)nc3n2C)C1 (single isomer, unassigned) [Example 216a] ... 54.9
CNC1CCc2c(c3ccc(Nc4ccc5c(c4)OCCO5)nc3n2C)C1 (single isomer, unassigned) [Example 217a] ... 23.6
CNC1CCc2c(c3ccc(Nc4ccc(F)c(F)c4)nc3n2C)C1 (single isomer, unassigned) [Example 214a] ... 33.5
CNC1CCc2c(c3ccc(Nc4ccc(N5CCOCC5)cc4)nc3n2C)C1 (racemic) [Example 42] ... 112

Per the records, this compound ( CNC1CCc2c(c3ccc(Nc4ccc(N5CCOCC5)cc4)nc3n2C)C1 (single isomer, unassigned) [Example 216b] ) has IC50 equal to 34.5

====

# TGT: Aβ1-42 peptide (Homo sapiens, UniProt P05067)
# PROTOCOL: Thioflavin T spectrofluorescence assay (ThT-assay): inhibition of Aβ1-42 aggregation (% inhibition at 330 μM; IC50 from dilution series)
# CONDITION_DETAILS: 24 h, read-out: Inhibition at 330 μM [%], ThT assay; 330 μM small molecule, 33 μM Aβ1-42 (10:1), 24 hrs at 37° C.; mean ± standard deviation of two independent experiments
Please mark Fulfilled if the recorded inhibition at 330 µM is equal to or greater than 90%, and Not fulfilled if it falls below.

Solved cases (5 shown):
CNC1CCc2c(c3ccc(Nc4ccc(N5CCOCC5)cc4)nc3n2C)C1 (racemic) [Example 42] ... Fulfilled
COC(=O)c1c[nH]c2nc(Nc3ccc4c(C5CCNCC5)c[nH]c4c3)ccc12 [Example 32] ... Fulfilled
COc1cc(Nc2ccc3c(c2)c2c(n3C)CCS(=O)(=O)C2)ccc1C [Example 178] ... Not fulfilled
FC1(CNc2ccc3c(C4CCNCC4)c[nH]c3n2)CCNCC1 [Example 37] ... Not fulfilled
CN1CCC(c2c[nH]c3cc(Nc4ccc5c(c4)OCC(=O)N5)ccc23)CC1 [Example 87] ... Not fulfilled

Kindly consider the entry below.
Qu. Say whether CNC1CCc2c(c3cc(Nc4ccc(OC)c(OC)c4)cnc3n2C)C1 (stereo not shown) [Example 135] shows inhibition at 330 µM of 90% or more.
Ans. Not fulfilled

====

# TGT: Aβ1-42 peptide (Homo sapiens)
# PROTOCOL: Thioflavin T spectrofluorescence assay (ThT-assay): inhibition of Aβ1-42 aggregation (% inhibition at 330 μM; IC50 from dilution series)
# CONDITION_DETAILS: IC50 μM 1st assay, ThT assay, dilution series 330 μM to 0.08 μM; 1st assay
REPORTED_METRIC: IC50 (µM)
Numbers only, in µM.

CNC1CCc2c(c3ccc(Nc4ccc(F)c(F)c4)nc3n2C)C1 (single isomer, unassigned) [Example 214b] ... 13.4

Consider the following items and state reported IC50 for each.
1. CNC1CCc2c(c3ccc(Nc4ccc(N5CCOCC5)cc4)nc3n2C)C1 (racemic) [Example 42]
2. CNC1CCc2c(c3ccc(Nc4ccc(F)c(F)c4)nc3n2C)C1 (racemic) [Example 26]
3. CNC1CCc2c(c3ccc(Nc4ccc5c(c4)OCCO5)nc3n2C)C1 (single isomer, unassigned) [Example 217a]

Ans.
1: 63; 2: 12.2; 3: 28

====

# TGT: Aβ1-42 peptide (Homo sapiens, UniProt P05067)
# PROTOCOL: Thioflavin T spectrofluorescence assay (ThT-assay): inhibition of Aβ1-42 aggregation (% inhibition at 330 μM; IC50 from dilution series)
# CONDITION_DETAILS: 24 h, read-out: Inhibition at 330 μM [%], ThT assay; 330 μM small molecule, 33 μM Aβ1-42 (10:1), 24 hrs at 37° C.; mean ± standard deviation of two independent experiments
REPORTED_METRIC: inhibition at 330 µM

These recorded examples may help you get a feel for the data.
COC1CCc2c(c3cc(Nc4ccc5c(c4)OCO5)ccc3n2C)C1 (stereo not drawn) [Example 125] ... 84.2%
CC(=O)N(C)C1CCc2c(c3ccc(Nc4ccc(N5CCOCC5)cc4)nc3n2C)C1 (stereo not drawn) [Example 164] ... 69.4%
Cn1cc(C2CCNCC2)c2ccc(Nc3ccc4c(c3)OCO4)nc21 [Example 66] ... 85.1%

List the reported inhibition at 330 µM of each compound below.
1. c1cc2cc(Nc3ccc4cc[nH]c4n3)ccc2[nH]1 [Example 18]
2. CNC1CCc2c(c3ccc(Nc4ccc5c(c4)OCC(=O)N5)nc3n2C)C1 (stereo not drawn) [Example 85]
3. CNC1CCc2c(c3ccc(Nc4cc(F)cc(F)c4)nc3n2C)C1 (stereo not drawn) [Example 29]
4. CNC1CCc2c(c3ccc(Nc4ccc(F)c(F)c4)cc3n2C)C1 (stereo not drawn) [Example 140]
5. CN1CCc2c(c3cc(Nc4ccc(F)c(F)c4)ccc3n2C)C1 [Example 206]
6. COc1ccc(Nc2ccc3[nH]c4c(c3c2)CC(N(C)C)CC4)cc1OC (stereo not drawn) [Example 88]

Ans.
1: 97%; 2: 95.1%; 3: 85.4%; 4: 93.8%; 5: 94.5%; 6: 96.9%

====

# TGT: Aβ1-42 peptide (Homo sapiens)
# PROTOCOL: Thioflavin T spectrofluorescence assay (ThT-assay): inhibition of Aβ1-42 aggregation (% inhibition at 330 μM; IC50 from dilution series)
# CONDITION_DETAILS: 24 h, read-out: Inhibition at 330 μM [%], ThT assay; 330 μM small molecule, 33 μM Aβ1-42 (10:1), 24 hrs at 37° C.; mean ± standard deviation of two independent experiments
REPORTED_METRIC: inhibition at 330 µM (%)
Numbers only, in %.

CN1CCC(c2c[nH]c3cc(Nc4cc(F)c(F)cc4F)ccc23)CC1 ... 91
CNC1(C)CCc2c(c3ccc(Nc4ccc(F)c(F)c4)nc3n2C)C1 (stereo not drawn) ... 89.6
COc1ccc(Nc2ccc3c(C4CCN(C)CC4)cn(C)c3c2)cc1OC ... 89.3
COc1ccc(Nc2ccc3c4c(n(C)c3n2)CCC(OCCF)C4)cc1OC (stereo not drawn) ... 79.9
c1cc2c(C3CCNCC3)c[nH]c2cc1Nc1ccc2c(C3CCNCC3)c[nH]c2c1 ... 91.5

Next:
Lookup result for CNC1CCc2c(c3ccc(Nc4ccc5c(c4)CN(C)CC5)nc3n2C)C1 (stereo not drawn) ; measured inhibition at 330 µM: 87.8

====

# TGT: Aβ1-42 peptide (Homo sapiens, UniProt P05067)
# PROTOCOL: Thioflavin T spectrofluorescence assay (ThT-assay): inhibition of Aβ1-42 aggregation (% inhibition at 330 μM; IC50 from dilution series)
# CONDITION_DETAILS: 24 h, read-out: Inhibition at 330 μM [%], ThT assay; 330 μM small molecule, 33 μM Aβ1-42 (10:1), 24 hrs at 37° C.; mean ± standard deviation of two independent experiments
REPORTED_METRIC: inhibition at 330 µM (%)
Numbers only, in %.

Cn1cnc2ccc(Nc3ccc4c5c(n(C)c4n3)CCCC5)cc21 [Example 172] ... 68.3

Go through the items and report each one's inhibition at 330 µM.
1. CNC1CCc2[nH]c3ccc(NC4CCN(C)CC4)cc3c2C1 (stereo not drawn) [Example 109]
2. CNC1CCc2c(c3ccc(Nc4ccc5c(C6CCN(C)CC6)c[nH]c5c4)nc3n2C)C1 (stereo not drawn) [Example 117]

Ans.
1. 63.6
2. 90.7

====

What inhibition at 330 µM was measured for each of the following?
# TGT: Aβ1-42 peptide (Homo sapiens, UniProt P05067)
# PROTOCOL: Thioflavin T spectrofluorescence assay (ThT-assay): inhibition of Aβ1-42 aggregation (% inhibition at 330 μM; IC50 from dilution series)
# CONDITION_DETAILS: 24 h, read-out: Inhibition at 330 μM [%], ThT assay; 330 μM small molecule, 33 μM Aβ1-42 (10:1), 24 hrs at 37° C.; mean ± standard deviation of two independent experiments
Report field: quantity (unit follows the number).

Cn1c2c(c3ccc(Nc4ccc5c(c4)OCO5)nc31)CCCC2 [Example 169] ... 92.4%
COCCNC1CCc2c(c3ccc(Nc4ccc(F)c(F)c4)nc3n2C)C1 (stereo not shown) [Example 141] ... 87.5%
c1cc2ccc(Nc3ccc4cc[nH]c4c3)cc2[nH]1 [Example 17] ... 96.3%
c1cc(N2CCOCC2)ccc1Nc1ccc2c(c1)OCO2 [Example 188] ... 83.3%
c1ccc(CCNc2ccc3cc[nH]c3n2)nc1 [Example 1] ... 69.5%

Please look at the items below and tell me inhibition at 330 µM for each one, in order.
1. COC1CCc2c(c3ccc(Nc4ccc(N5CCOCC5)cc4)nc3n2C)C1 (stereo not shown) [Example 193]
2. c1nc2[nH]cc(C3CCNCC3)c2cc1Nc1ccc2c3c([nH]c2n1)CCCC3 [Example 45]
3. CN1CCC(c2c[nH]c3cc(Nc4ccc5[nH]cc(C6CCN(C)CC6)c5c4)ccc23)CC1 [Example 118]
4. CNC1CCc2c(c3ccc(Nc4ccc5c(c4)OCCCO5)nc3n2C)C1 (stereo not shown) [Example 84]
5. COc1ccc(Nc2ccc3c(c2)c2c(n3C)CCC(OC)C2)cc1OC (stereo not shown) [Example 121]
6. CNC1CCc2c(c3ccc(Nc4ccc5ncn(C)c5c4)nc3n2C)C1 (stereo not shown) [Example 159]
7. COC1CCc2c(c3cc(Nc4ccc5c(c4)OCCO5)ccc3n2C)C1 (stereo not shown) [Example 126]
8. CNC1CCc2c(c3ccc(Nc4cccc(N5CCN(C)CC5)c4)nc3n2C)C1 (stereo not shown) [Example 80]

Ans.
54.3%
96.5%
96.8%
91.7%
91%
91.9%
82.2%
83.3%
